- assayed target: His6-GSK-3β (Homo sapiens)
- Construct: made in house; host or cells: Sf21 insect cells (baculovirus)
- measurement protocol: Inhibition of His6-GSK-3β kinase activity (ELISA-based format, time-resolved fluorescence readout)
- Type: biochemical
- condition context: class symbols; read-out: GSK3β IC50
experimental readout: IC50

>>> print(df.to_string())
                                   molecule  experimental_readout    reported
0  C[C@H](O)CNc1nc(C2C(=O)Nc3ccc(Br)cc32)c2cn(C)nc2n1 (some centres unmarked) [Example 304]                  IC50    < 300 nM
1  N#Cc1cccc2c1NC(=O)C2c1ncnc2c1cnn2C1CCCCC1 (centres unmarked) [Example 70]                  IC50  > 10000 nM
2  C[C@@H](O)CNc1nc(C2C(=O)Nc3ccc(Br)cc32)c2cn(C3CCCC3)nc2n1 (some centres unmarked) [Example 373]                  IC50    < 300 nM

*Q* Tell me IC50 reported for CN(C)CCNc1nc(C2C(=O)Nc3ccc(C(F)(F)F)cc32)c2cn(C3CCCC3)nc2n1 (centres unmarked) [Example 251]
*A* < 300 nM

*Q* Tell me IC50 reported for O=C1Nc2ccc(Cl)cc2C1c1nc(NCc2ccc(C(F)(F)F)nc2)nc2c1CCC2 (centres unmarked) [Example 329]
*A* > 10000 nM

*Q* Tell me IC50 reported for CCCn1cc2c(C3C(=O)Nc4ccc(F)cc43)ncnc2n1 (centres unmarked) [Example 100]
*A* 300 to 3000 nM

*Q* Tell me IC50 reported for O=C1Nc2ccc(C(F)(F)F)cc2C1c1ncnc2c1cnn2C1CCCCC1 (centres unmarked) [Example 71]
*A* > 10000 nM

*Q* Tell me IC50 reported for CNc1nc(C2C(=O)Nc3ccccc32)c2cn(C3CCCC3)nc2n1 (centres unmarked) [Example 154]
*A* 300 to 3000 nM

*Q* Tell me IC50 reported for N#Cc1ccc2c(c1)C(c1nc(N3CCN(CCc4cccs4)CC3)nc3nn(C4CCCC4)cc13)C(=O)N2 (centres unmarked) [Example 130]
*A* < 300 nM

*Q* Tell me IC50 reported for CCCn1cc2c(C3C(=O)Nc4ccc(Br)cc43)nc(NCCN(C)C)nc2n1 (centres unmarked) [Example 197]
*A* < 300 nM

*Q* Tell me IC50 reported for O=C1Nc2ccc([N+](=O)[O-])cc2C1c1ncnc2nn(C3CCCCC3)cc12 (centres unmarked) [Example 49]
*A* < 300 nM

---

- assayed target: His6-GSK-3β (Homo sapiens, UniProt P49841)
- Construct: made in house; host or cells: Sf21 insect cells (baculovirus)
- Sequence (P49841 2-419): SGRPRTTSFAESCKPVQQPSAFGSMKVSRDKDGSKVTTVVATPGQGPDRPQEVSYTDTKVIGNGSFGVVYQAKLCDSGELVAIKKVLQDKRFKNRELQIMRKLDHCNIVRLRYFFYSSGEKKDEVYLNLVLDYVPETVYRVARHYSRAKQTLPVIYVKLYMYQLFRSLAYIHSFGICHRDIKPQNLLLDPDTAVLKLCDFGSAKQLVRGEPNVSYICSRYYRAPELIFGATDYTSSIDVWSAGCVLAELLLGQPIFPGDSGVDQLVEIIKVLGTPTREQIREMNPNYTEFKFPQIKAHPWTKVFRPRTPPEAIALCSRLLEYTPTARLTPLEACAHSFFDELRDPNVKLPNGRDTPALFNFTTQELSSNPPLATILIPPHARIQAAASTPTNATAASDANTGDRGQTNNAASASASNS
- measurement protocol: Inhibition of His6-GSK-3β kinase activity (ELISA-based format, time-resolved fluorescence readout)
- Type: biochemical
- condition context: class symbols; read-out: GSK3β IC50
experimental readout: IC50

Some solved entries appear below for comparison.
>>> df
                                   compound  reported
0  CCOCCn1cc2c(C3C(=O)Nc4ccc(Cl)cc43)nc(NCCc3cccnc3)nc2n1 (centres unmarked)  < 300 nM
1  CN(C)CCCNc1nc(C2C(=O)Nc3ccc(Br)cc32)c2cn(C3CCCC3)nc2n1 (centres unmarked)  < 300 nM
2  CCCn1cc2c(C3C(=O)Nc4ccc(Cl)cc43)ncnc2n1 (centres unmarked)  < 300 nM

*Q* Tell me IC50 reported for CC(C)Nc1nc(C2C(=O)Nc3ccc(C#N)cc32)c2cn(C3CCCC3)nc2n1 (centres unmarked)
*A* < 300 nM

*Q* Tell me IC50 reported for O=C1Nc2ccc(Cl)cc2C1c1nc(Cl)nc2c1CCC2 (centres unmarked)
*A* > 10000 nM

*Q* Tell me IC50 reported for C[C@@H](O)CNc1nc(C2C(=O)Nc3ccc(Cl)cc32)c2cn(C3CCCC3)nc2n1 (some centres unmarked)
*A* < 300 nM

*Q* Tell me IC50 reported for O=C1Nc2ccc(Cl)cc2C1c1ncnc2nn(C3CCCC3)cc12 (centres unmarked)
*A* < 300 nM

*Q* Tell me IC50 reported for CCCn1cc2c(C3C(=O)Nc4ccc(Br)cc43)nc(NCCN)nc2n1 (centres unmarked)
*A* < 300 nM

---

Entries and their pIC50 values follow.
- assayed target: His6-GSK-3β (Homo sapiens)
- Construct: made in house; host or cells: Sf21 insect cells (baculovirus)
- measurement protocol: Inhibition of His6-GSK-3β kinase activity (ELISA-based format, time-resolved fluorescence readout)
- Assay type: biochemical
- condition context: class symbols; read-out: GSK3β IC50
- Description: Full-length GSK-3β was amplified from a sequence-verified I.M.A.G.E. EST acquired from Research Genetics (Invitrogen, Clone ID# CSODB003YJ02). […] Inhibitory effects of compounds on baculoviral GSK-3β kinase activity were evaluated using an ELISA-based format in a 384-well FluoroNunc Maxisorp plate (Cat # 460372) with a time-resolved fluorescence readout. […] Inhibition data were analyzed using ActivityBase and IC50 curves were generated using XLFit 3.0.5.
pIC50: −log10 of the molar value. Where a name gives a salt, the structure may show the parent alone.

Some solved entries appear below for comparison.
In [3]: df
Out[3]:
                                   compound  reported
0  CCCn1cc2c(C3C(=O)Nc4ccc(Br)cc43)nc(NCCCNC)nc2n1 (stereo not drawn) [Example 201, hydrochloride]    > 6.52
1  Cn1cc2c(C3C(=O)Nc4ccc(Br)cc43)nc(NCCc3cccnc3)nc2n1 (stereo not drawn)    > 6.52

*Q* Tell me pIC50 reported for N#Cc1ccc2c(c1)C(c1nc(Cl)nc3c1CCC3)C(=O)N2 (stereo not drawn)
*A* < 5.00

*Q* Tell me pIC50 reported for O=C1Nc2ccc(Br)cc2C1c1nc(NCc2cccnc2)nc2c1CCC2 (stereo not drawn)
*A* 5.52 to 6.52

*Q* Tell me pIC50 reported for CC(C)n1cc2c(C3C(=O)Nc4ccc(Cl)cc43)ncnc2n1 (stereo not drawn)
*A* 5.52 to 6.52

*Q* Tell me pIC50 reported for CNc1nc(C2C(=O)Nc3ccc(C#N)cc32)c2cn(C3CCCC3)nc2n1 (stereo not drawn)
*A* > 6.52

*Q* Tell me pIC50 reported for O=C1Nc2ccc(Br)cc2C1c1nc(NCc2ccccn2)nc2c1CCC2 (stereo not drawn)
*A* < 5.00

---

- assayed target: CDK5/GST-p25 (Homo sapiens)
- Construct: The final construct, encoding for full-length human CDK5; made in house; host or cells: Sf21 insect cells (baculovirus co-infection)
- Sequence (Q00535 whole entry): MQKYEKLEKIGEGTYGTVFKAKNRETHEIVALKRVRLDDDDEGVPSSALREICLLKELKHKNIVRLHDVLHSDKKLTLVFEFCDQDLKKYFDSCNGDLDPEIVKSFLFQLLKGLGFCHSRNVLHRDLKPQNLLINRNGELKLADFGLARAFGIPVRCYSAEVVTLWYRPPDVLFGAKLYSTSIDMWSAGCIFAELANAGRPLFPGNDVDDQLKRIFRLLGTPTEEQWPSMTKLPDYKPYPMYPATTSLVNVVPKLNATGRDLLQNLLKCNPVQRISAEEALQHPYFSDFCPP
- Sequence (Q15078 108-307 partner limits assumed): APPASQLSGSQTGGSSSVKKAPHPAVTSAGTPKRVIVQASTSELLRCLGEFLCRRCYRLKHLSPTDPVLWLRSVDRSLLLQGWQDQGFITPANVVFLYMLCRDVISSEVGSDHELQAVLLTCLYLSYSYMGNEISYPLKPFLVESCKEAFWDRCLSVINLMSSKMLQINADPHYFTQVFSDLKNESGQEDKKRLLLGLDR
- measurement protocol: Inhibition of CDK5/GST-p25 kinase activity (ELISA with time-resolved fluorescence readout)
- Type: biochemical
- condition context: class symbols
- Protocol: Two recombinant baculoviral constructs were created, one encoding for human CDK5 and the other encoding for human p25 with an amino-terminal glutathione-S-transferase (GST) tag. […] Compounds were tested for their ability to inhibit the kinase activity of recombinant baculoviral CDK5/GST-p25 using an enzyme-linked immunosorbent assay (ELISA) with time-resolved fluorescence (TRF) readout. […] Inhibition data were analyzed using ActivityBase and IC50 curves were generated using XLFit 3.0.5.
pIC50: −log10 of the molar value.
Entries and their pIC50 values follow.

Some solved entries appear below for comparison.
>>> df
                                   molecule      reported
0  CCOCCn1cc2c(C3C(=O)Nc4ccc(Cl)cc43)nc(NC[C@H](C)O)nc2n1 (some centres unmarked)        > 6.52
1  CC(C)Cn1cc2c(C3C(=O)Nc4ccc(Cl)cc43)nc(Cl)nc2n1 (centres unmarked) [Example 261]        < 5.00
2  O=C1Nc2cc(F)ccc2C1c1ncnc2nn(C3CCCC3)cc12 (centres unmarked)  5.52 to 6.52
3  N#Cc1ccc2c(c1)C(c1nc(NCc3ccncc3)nc3c1CCC3)C(=O)N2 (centres unmarked)  5.52 to 6.52
4  N#Cc1cccc2c1NC(=O)C2c1ncnc2c1cnn2C1CCCC1 (centres unmarked)        < 5.00

*Q* Tell me pIC50 reported for CCCn1cc2c(C3C(=O)Nc4ccc(Br)cc43)nc(NC[C@H](O)CO)nc2n1 (some centres unmarked)
*A* > 6.52

*Q* Tell me pIC50 reported for CN(C)CCCNc1nc(C2C(=O)Nc3ccc(Cl)cc32)c2cn(C3CCCC3)nc2n1 (centres unmarked)
*A* < 5.00

*Q* Tell me pIC50 reported for Cn1cc2c(C3C(=O)Nc4ccc(C#N)cc43)ncnc2n1 (centres unmarked)
*A* > 6.52

---

Entries and their melting point values follow.

*Q* Tell me melting point reported for CCCn1ncc2c(C3C(=O)Nc4ccc(Cl)cc43)ncnc21 (stereo not drawn)
*A* 293 to 297 °C

*Q* Tell me melting point reported for COCCNc1nc(C2C(=O)Nc3ccc(Br)cc32)c2cn(CCOC)nc2n1 (stereo not drawn)
*A* > 300 °C

src = patent US8354414B2
